System: A498
Assay: Growth inhibition of human A498 cells at 10 uM incubated for 48 hrs by sulforhodamine B assay relative to control
Type: functional
Details: A498, 48 h, values are per cent of control
attribute.measured: growth, % of control at 10 µM

# smiles.notation, obs.value
measured = [
    ("CCS/C(Nc1ccccc1)=C(\\C#N)C(=O)N/N=C\\c1ccco1", "77.3%"),
    ("CCS/C(Nc1ccccc1)=C(\\C#N)C(=O)Nc1ccc(C)cc1", "79.4%"),
    ("CCS/C(Nc1ccccc1)=C(\\C#N)C(=O)Nc1ccccc1", "76.2%"),
]

* * *

Tested on: NCI-H460
Assay: Growth inhibition of human NCI-H460 cells at 10 uM incubated for 48 hrs by sulforhodamine B assay relative to control
Type: functional
Settings: NCI-H460, 48 h, values are per cent of control
Reported growth, % of control at 10 µM values for a set of molecules
attribute.measured: growth, % of control at 10 µM (%)

# smiles.notation, attribute.measured, obs.value
rows = [
    ("CCS/C(Nc1ccccc1)=C(\\C#N)C(=O)N/N=C\\c1ccco1", "growth, % of control at 10 µM", 110),
    ("CC(C)(C)S/C(Nc1ccccc1)=C(\\C#N)C(=O)N/N=C\\c1ccc(Cl)cc1Cl", "growth, % of control at 10 µM", 101),
    ("CCS/C(Nc1ccccc1)=C(\\C#N)C(=O)Nc1ccccc1", "growth, % of control at 10 µM", 99.5),
    ("CCS/C(Nc1ccccc1)=C(\\C#N)C(=O)N/N=C\\c1ccc(Cl)cc1Cl", "growth, % of control at 10 µM", 8.05),
    ("CCS/C(Nc1ccccc1)=C(\\C#N)C(=O)Nc1ccc(C)cc1", "growth, % of control at 10 µM", 98.8),
    ("CC(C)(C)S/C(Nc1ccccc1)=C(\\C#N)C(=O)Nc1ccccc1", "growth, % of control at 10 µM", 103),
    ("CC(C)(C)S/C(Nc1ccccc1)=C(\\C#N)C(=O)N/N=C\\c1ccco1", "growth, % of control at 10 µM", 102),
    ("CCS/C(Nc1ccccc1)=C(\\C#N)C(=O)Nc1ccc(OC)cc1", "growth, % of control at 10 µM", 10.1),
]

* * *

Tested on: HCT-116
Assay: Growth of human HCT116 cells at 10 uM incubated for 48 hrs by sulforhodamine B assay relative to control
Conditions: HCT-116, 48 h

# smiles.notation, growth, % of control at 10 µM [%]
records = [
    ("CCS/C(Nc1ccccc1)=C(\\C#N)C(=O)Nc1ccc(C)cc1", 90),
    ("CC(C)(C)S/C(Nc1ccccc1)=C(\\C#N)C(=O)N/N=C\\c1ccc(Cl)cc1Cl", 88),
    ("CCS/C(Nc1ccccc1)=C(\\C#N)C(=O)Nc1ccc(OC)cc1", 14.3),
    ("CC(C)(C)S/C(Nc1ccccc1)=C(\\C#N)C(=O)Nc1ccccc1", 95.2),
    ("CCS/C(Nc1ccccc1)=C(\\C#N)C(=O)Nc1ccccc1", 92.7),
    ("CCS/C(Nc1ccccc1)=C(\\C#N)C(=O)N/N=C\\c1ccc(Cl)cc1Cl", 17.5),
    ("CC(C)(C)S/C(Nc1ccccc1)=C(\\C#N)C(=O)N/N=C\\c1ccco1", 82.9),
    ("CCS/C(Nc1ccccc1)=C(\\C#N)C(=O)N/N=C\\c1ccco1", 95.5),
]
